tested on: Mino; test: CCK-8 tumor cell proliferation, Mino; assay type: cell-based, Human; settings: Homo sapiens; Table 19; Mino; given as number; read-out: IC50 inhibiting proliferation of tumor cells, Mino
pIC50: −log10 of the molar value.
Property name: pIC50

Q: What value of pIC50 has been recorded for this entry: Cc1cc(-c2nc(C(=O)Nc3cc4oc(N5CCOCC5)nc4nc3N3CC[C@@H](O)C3)co2)ccn1 [emavusertib, reference compound]
Result: < 5.00

---

tested on: SW620; test: CCK-8 tumor cell proliferation, SW620; type: cell-based, Human; conditions: Homo sapiens, SW-620; Table 19, IRAK4 inhibitor based; SW620; read-out: IC50 inhibiting proliferation of tumor cells, SW620
Property name: IC50

Q: Lookup: IC50 / SW620 / O=C1CCC(N2Cc3c(ccc(CN4CCC(n5cc(NC(=O)c6cnn7ccc(N8CCOCC8)nc67)c(C(F)F)n5)CC4)c3F)C2=O)C(=O)N1 (stereo not drawn)
Result: < 50 nM

Q: Lookup: IC50 / SW620 / O=C1CCC(N2Cc3c(ccc(CN4CCC(n5cc(NC(=O)c6coc(-c7ccnc(NCC8CC8)c7)n6)c(C(F)F)n5)CC4)c3F)C2=O)C(=O)N1 (stereo not drawn)
Result: < 50 nM

Q: Lookup: IC50 / SW620 / O=C1CCC(N2Cc3cc(CN4CCC(n5cc(NC(=O)c6cnn7ccc(N8CCOCC8)nc67)c(C(F)F)n5)CC4)ccc3C2=O)C(=O)N1 (stereo not drawn)
Result: < 50 nM

Q: Lookup: IC50 / SW620 / O=C1CCC(N2Cc3c(CN4CCC(n5cc(NC(=O)c6coc(-c7ccnc(NCC8CC8)c7)n6)c(C(F)F)n5)CC4)cccc3C2=O)C(=O)N1 (stereo not drawn)
Result: 1000 to 5000 nM

Q: Lookup: IC50 / SW620 / O=C1CCC(N2Cc3cc(CN4CCC(n5cc(NC(=O)c6coc(-c7ccnc(NCC(F)(F)F)c7)n6)c(C(F)F)n5)CC4)ccc3C2=O)C(=O)N1 (stereo not drawn)
Result: < 50 nM

Q: Lookup: IC50 / SW620 / O=C1CCC(N2Cc3cc(CN4CCC(n5cc(NC(=O)c6coc(-c7ccnc(NCC(F)(F)F)c7)n6)c(C(F)F)n5)CC4)cc(F)c3C2=O)C(=O)N1 (stereo not drawn)
Result: < 50 nM
